- EXPERIMENTAL_SYSTEM: pooled human IgG (human IgG1, 2, 3 and 4)
EXPERIMENTAL_ENDPOINT: Enzyme Activity Endpoint Assay: Fab′2 (ng/µL)
Please respond with the number in ng/µL and leave the unit unwritten.

{"PROTEIN": "PRT-588 (protein) MRNQTTTYSEVTPSHITSVWTKGVTPPEQFIQGEDVFHAPYIANQGWYDITKTFNGKDDLLCGAATAGNMLHWWFDQNKEQIENYLKKHPEKQKIMFNNEEMFDLREAINTKDSQTDSALFSYFKDKAFPNLSARRLGVMPDHVLDMFINGYYLNVGNTDKTDVNRGTKDLRGGIFDAVFTRGDQSKLLTARHDLKNKTLKEISDLIKQELTEGKALALSHTYANVRINHVINLWGADFDAEGNLEAIYVTDSDSNASIGMKKYYVGVNSAGKVAISAKKIEGDNIGAQVLGLFTLSTGQDIWQQTNLEHHHHHH", "EXPERIMENTAL_ENDPOINT": "Enzyme Activity Endpoint Assay: Fab′2", "QUANTITY_UNIT": "ng/µL", "MEAS_VALUE": 658}

For the next question, use this protein.
For PRT-384 (protein) MVTSVWTKGVTPPTNFTYGEDVLHAPYVANQGWYDITKTFNGKDDLLCGAATAGNMLHWWFDQNKEQIENYLKKHPEKQKINFNGEQMFDVKEAIDTKDSQLDSKLFEYFKEKAFPNLSTKHLGVFPDHVIDMFINGYRLSLTNHGPTPVKRGSKDPRGGIFDAVFTRGDQSKLLTNRHDFKEKTLKEISDLIKQELTEGKALGISHTYANVRINHVINLWGADFDAEGNLEAIYVTDSDSNASIGMKKYFVGVNSNGKVAISAKEIEEDNIGAQVLGLFTLSTGQDIWNQTN the protein record lists Enzyme Activity Endpoint Assay: Fab′2 as 365

Cited source: patent US20250027068
